Experiment: Acute toxicity testing, oral, rats
Design: species or system rat (male SD-strain)
Details: rat, in vivo, male SD rats, two-week observation, probit method
readout-type: LD50 at 336 h

`O=C1CC[C@H](C(=O)N2CCCCC2)N1` has a reported LD50 at 336 h of ≥ 5000 mg/kg

====

Assay: Acute toxicity testing, oral, mice
Parameters: species or system mouse (male ddy-strain)
Conditions: mouse, in vivo, male ddy mice, 2 weeks observation, probit method
readout-type: LD50 at 336 h (mg/kg)
Answer in mg/kg, number only, no unit symbol.

O=C1CC[C@H](C(=O)N2CCCCC2)N1 [Compound No. 2] has a reported LD50 at 336 h of 4160
